# subject_of_test: human Kv1.3 (Homo sapiens (Human), UniProt P22001)
# Sequence (P22001 whole entry): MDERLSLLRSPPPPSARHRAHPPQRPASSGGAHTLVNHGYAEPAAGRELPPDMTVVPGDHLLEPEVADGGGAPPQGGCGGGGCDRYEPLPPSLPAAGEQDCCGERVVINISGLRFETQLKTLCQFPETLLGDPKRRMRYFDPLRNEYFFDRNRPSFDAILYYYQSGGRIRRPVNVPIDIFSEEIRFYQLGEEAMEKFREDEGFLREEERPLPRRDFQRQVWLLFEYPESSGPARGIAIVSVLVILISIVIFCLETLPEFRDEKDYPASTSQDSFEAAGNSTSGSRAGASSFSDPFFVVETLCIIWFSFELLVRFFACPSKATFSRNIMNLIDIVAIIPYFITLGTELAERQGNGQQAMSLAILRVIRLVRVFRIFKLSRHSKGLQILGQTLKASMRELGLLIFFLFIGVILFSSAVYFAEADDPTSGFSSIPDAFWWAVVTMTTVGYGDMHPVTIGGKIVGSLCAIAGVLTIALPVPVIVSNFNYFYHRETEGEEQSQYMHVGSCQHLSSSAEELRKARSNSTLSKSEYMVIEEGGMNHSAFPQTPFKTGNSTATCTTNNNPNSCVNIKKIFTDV
# assay_summary: Kv1.3 potency evaluation, automated patch clamp electrophysiology (QPatch HT) in CHO-Kv1.3 cells
# cond: whole-cell QPatch HT, % inhibition of charge, step to +30 mV, four concentrations, N≥3 cells, read-out: hKv1.3 IC50
Exam item: assign yes to entries whose IC50 is below 80 nM and no to entries at or above 80 nM. Note that a value of exactly 80 nM receives no.

# example entries with known answers
CC1(C)CC(NC(=O)[C@@]2(C)CN=C(C34CC(N(Cc5ccc(C(F)(F)F)cc5)S(=O)(=O)c5ccc(F)cc5)(C3)C4)N2)C1 (mixture of isomers)    no
CCCS(=O)(=O)N(Cc1ccc(Cl)c(Cl)c1)C12CC(C3=NC(C)(C)[C@H](C(=O)NCC4(C(F)(F)F)CC4)N3)(C1)C2 (mixture of isomers)    no

Decide: IC50 of CC1(C)N=C(C23CC(N(Cc4ccc(Cl)c(F)c4)S(=O)(=O)c4ccccc4)(C2)C3)N[C@H]1C(=O)N1CCCCC1 (mixture of isomers) strictly below 80 nM? yes

Here's an entry: C[C@]1(C(=O)NCC2CC(F)(F)C2)CN=C(C23CC(N(Cc4ccc(C(F)(F)F)cc4)S(=O)(=O)c4ccc(F)cc4)(C2)C3)N1 (mixture of isomers) . Is its IC50 below 80 nM? no

# strict comparison: is reported IC50 < 80 nM? input = CC1(C)N=C(C23CC(N(Cc4ccc(Cl)c(F)c4)S(=O)(=O)c4ccccc4)(C2)C3)N[C@H]1C(=O)NCC1CC1(F)F (mixture of isomers) [Example 11] yes
